Compiled literature pIC50, tested on UniProtKB P39877.
Sequence (P39877 whole entry): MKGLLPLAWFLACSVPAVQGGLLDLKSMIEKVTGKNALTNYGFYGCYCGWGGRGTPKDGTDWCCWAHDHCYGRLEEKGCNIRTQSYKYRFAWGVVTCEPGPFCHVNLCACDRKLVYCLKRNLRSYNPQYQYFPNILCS
Answers are plain numbers, as −log10 of the molar value.

NC(=O)c1cc2ccc(OC(F)(F)F)cc2n1-c1cnn(CCC(=O)O)c1 :: 5.57
CCCCCCCCCCCCCCOC(COCc1ccc(C#N)cc1)COc1ccc(Cc2nc(=O)o[nH]2)cc1 (racemic) :: 5.76
CCCCCCCCCCCCCCC(=O)C(=O)N[C@@H](CC(C)C)C(=O)O :: 6.36
CC(CC(=O)O)c1cccc(-n2c(C(N)=O)cc3ccc(OC(F)(F)F)cc32)n1 (stereo in doubt; (-)-17) :: 5.26
CCCCCCCCCCCC(=O)c1c(O)c(C)c(O)c(C(=O)CCCCCCCCCCC)c1O :: 6.28
Cc1c(C(=O)C(N)=O)c2c(OCC(=O)O)cccn2c1Cc1ccccc1-c1ccccc1 :: 8.00

Need pIC50 for each of these compounds.
1. O=c1[nH]c2ccccc2n2c(-c3ccc(Cl)c(Cl)c3)ccc12
2. CCC(Cc1cccc(-n2c(C(N)=O)cc3ccc(OC(F)(F)F)cc32)n1)C(=O)O (stereo in doubt; 15)
3. NC(=O)c1cc2ccc(OC(F)(F)F)cc2n1-c1cccc(CCC(=O)O)n1
4. CCCCCCCCCCCCCCOC(COCCCCc1ccccc1)COc1ccc(-c2noc(=O)[nH]2)cc1 (racemic)

[5.52, 5.72, 5.64, 4.66]

Below are some compounds; for each one, tell me its pIC50.
1. CC(C)[C@@H]1NC(=O)N(CC(=O)OC(C)(C)C)CN(C)C1=O
2. NC(=O)c1cc2ccc(OC(F)(F)F)cc2n1-c1ccc(CCC(=O)O)o1
3. CCCCCCCCCCCCCCOC(COc1ccc(-c2noc(=O)[nH]2)cc1)COC(c1ccccc1)(c1ccccc1)c1ccccc1 (racemic)

1. 4.92
2. 5.23
3. 6.18

Batch of 2 compounds: report pIC50 for each.
1. CCCCCCCCCCCCCCOC(COc1ccc(-c2noc(=O)[nH]2)cc1)COC(c1ccccc1)c1ccccc1 (racemic)
2. C[C@@H](CC(=O)O)c1cccc(-n2c(C(N)=O)cc3ccc(OC(F)(F)F)cc32)c1

1: 5.70; 2: 5.29
